pEC50 for assorted molecules
Tested on: Human immunodeficiency virus 1
assay-overview: Antiviral activity against HIV1 3B in CEM/0 cells assessed as inhibition of virus-induced cytopathogenicity
Assay type: functional, organism-based
protocol-conditions: Human immunodeficiency virus 1, 3B, CCRF-CEM
pEC50: −log10 of the molar value.

molecule: CSS[C@H]1C[C@H](n2ccc(=O)[nH]c2=O)O[C@@H]1CO
result-qualifier: <
pEC50: 4.30
--
molecule: Cc1cn([C@H]2C[C@H](SSCCN)[C@@H](CO)O2)c(=O)[nH]c1=O
result-qualifier: =
pEC50: 4.70
--
molecule: O=c1[nH]c(=O)n([C@H]2C[C@H](SS[C@H]3C[C@H](n4cc(Br)c(=O)[nH]c4=O)O[C@@H]3CO)[C@@H](CO)O2)cc1Br
result-qualifier: =
pEC50: 3.90
--
molecule: CCCCCCCCSS[C@H]1C[C@H](n2cc(C)c(=O)[nH]c2=O)O[C@@H]1CO
result-qualifier: =
pEC50: 4.70
--
molecule: Cc1cn([C@H]2C[C@H](SSCCCCCCO)[C@@H](CO)O2)c(=O)[nH]c1=O
result-qualifier: =
pEC50: 4.82
--
molecule: Nc1ccn([C@H]2C[C@H](SS[C@H]3C[C@H](n4ccc(N)nc4=O)O[C@@H]3CO)[C@@H](CO)O2)c(=O)n1
result-qualifier: =
pEC50: 4.14
--
molecule: Cc1cn([C@H]2C[C@H](SSCCO)[C@@H](CO)O2)c(=O)[nH]c1=O
result-qualifier: =
pEC50: 4.87
--
molecule: CCCCCCSS[C@H]1C[C@H](n2cc(C)c(=O)[nH]c2=O)O[C@@H]1CO
result-qualifier: =
pEC50: 4.70
--
molecule: C[C@H](Cn1cnc2c(N)ncnc21)OCP(=O)(O)O [TENOFOVIR ANHYDROUS]
result-qualifier: =
pEC50: 5.26
